Test system: Adenosine Diphosphate (ADP)-Induced Platelet Aggregation
testDescription: Inhibitory Effect on Adenosine Diphosphate (ADP)-Induced Platelet Aggregation (turbidimetric method, platelet rich plasma)
Type: cell-based, Japanese White rabbit
assayConditions: Oryctolagus cuniculus; rabbit platelet rich plasma; aggregation induced by 20 μM ADP; read-out: concentration at which the compound inhibited 50% of platelet aggregation (IC50)
Experimental: Platelet rich plasma (PRP) was prepared from Japanese White rabbit blood drawn from the carotid artery into a syringe containing 3.8% sodium citrate (1/10) volume, and centrifuged at 400×g for 10 min. Platelet aggregation in PRP was induced by 20 μM ADP and determined by the turbidimetric method using an aggregomater (Hema-Tracer: Niko Bioscience Co., Ltd., Japan).
pIC50: −log10 of the molar value.
Label Yes when pIC50 is at or above 4; anything below gets No.

See these solved cases before continuing.
Decide: pIC50 of O=C1CCc2cc(N3CCC(O)CC3)c(C(F)(F)F)cc2N1 >= 4?
Yes

Decide: pIC50 of O=C1CCc2cc(N3CCC(O)CC3)c(Br)cc2N1 >= 4?
Yes

Decide: pIC50 of O=C1CCc2cc(N3CCC(O)CC3)c(F)cc2N1 >= 4?
Yes

Decide: pIC50 of O=C1CCc2cc(N3CCC(O)CC3)c([N+](=O)[O-])cc2N1 >= 4?
Yes

Decide: pIC50 of N#Cc1cc2c(cc1N1CCC(O)CC1)CCC(=O)N2 >= 4?
Yes

Decide: pIC50 of CCC(=O)OC1CCN(c2cc3c(cc2[N+](=O)[O-])NC(=O)CC3)CC1 >= 4?
Yes

Decide: pIC50 of COC(=O)c1cc2c(cc1N1CCC(O)CC1)CCC(=O)N2 >= 4?
Yes

Decide: pIC50 of O=C1CCc2c(ccc(N3CCC(O)CC3)c2Br)N1 >= 4?
No

Continuing:
Decide: pIC50 of O=C1CCc2c(ccc(N3CCC(O)CC3)c2[N+](=O)[O-])N1 >= 4?
Yes

Decide: pIC50 of O=C1CCc2c(ccc(N3CCC(O)CC3)c2Cl)N1 >= 4?
No

Decide: pIC50 of O=C1CCc2cc(N3CCC(O)CC3)c(Cl)cc2N1 >= 4?
Yes
